Data provenance: PubChem BioAssay AID256

- System: CD2F1 mice, L1210 leukemia ip, survival T/C
- Measurement description: NCI In Vivo Anticancer Drug Screen. Data for tumor model L1210 Leukemia (intraperitoneal) in CD2F1 (CDF1) mice
- Condition details: endpoint: mean survival time; dose: 100.0 mg/kg/injection; schedule: Q01DX009 (ip); vehicle: saline
Inconclusive results and toxic doses are left out. The calls were made as follows: active = survival T/C of 150% or more; inactive = T/C below 125% in these data.
Possible outcomes: yes (active), no (inactive)

NC(=O)c1csc(C2OC(CO)C(O)C2O)n1 (centres undefined) :: yes
CCCCCCCCCCCCCC(=O)N(C)C :: no
NNC(=O)C1CC2CCC1C2 (centres undefined) :: no
CCCCCCCCCCC(N)C(=O)O (centres undefined) :: no

----------
- Tested on: CD2F1 mice, L1210 leukemia ip, survival T/C
- Measurement description: NCI In Vivo Anticancer Drug Screen. Data for tumor model L1210 Leukemia (intraperitoneal) in CD2F1 (CDF1) mice
- Condition details: endpoint: median survival time; dose: 50.0 mg/kg/injection; schedule: Q01DX005 (ip); vehicle: saline; higher = longer survival
Toxic doses and inconclusive results are not listed.
Measured T/C, listed per entry.
Readout label: T/C

CSc1nc(NC2OC(CO)C(O)C(O)C2O)cc(=O)n1C (stereo not given) :: 102 % of control
Cc1cc2c(Cl)ncnc2[nH]1 :: 90 % of control
O=P(O)(O)OC1OC(n2cnc3c(NCc4ccc(F)cc4)ncnc32)C(O)C1O (stereo not given) :: 92 % of control
CSc1nc2[nH]c(C)cc2c(=O)[nH]1 :: 102 % of control
CN(CN1C(=O)CCC1=O)CN1C(=O)CCC1=O :: 105 % of control

----------
The entries below are paired with their reported T/C.
- Test system: CD2F1 mice, L1210 leukemia ip, survival T/C
- Measurement description: NCI In Vivo Anticancer Drug Screen. Data for tumor model L1210 Leukemia (intraperitoneal) in CD2F1 (CDF1) mice
- Condition details: endpoint: mean survival time; dose: 200.0 mg/kg/injection; schedule: Q04DX003 (ip); vehicle: saline with Tween-80; higher = longer survival
Toxic doses and inconclusive results are not listed.
Readout label: T/C

CCOC(=O)Nc1cc2c3ccccc3ncc2c2ccccc12 :: 89 % of control
CC(=O)CCC(=O)OC1CCCCC1 :: 97 % of control
O/N=C\c1ccc(/C=N/O)cc1 :: 92 % of control
CCC(C)CC(O)CC1=CCCCC1 (stereo unspecified) :: 95 % of control
CC(=O)C1C(=O)CC(C)(O)C(C(C)=O)C1c1ccccc1 (stereo unspecified) :: 101 % of control
O=C(O)C(=O)O.[Mn] :: 100 % of control
CCOC(=O)/C(C)=C/C(O)CO (stereo unspecified) :: 98 % of control
O=S(=O)(O)c1ccc2c(N=Nc3ccccc3[As](=O)(O)O)c(O)c(S(=O)(=O)O)cc2c1 :: 94 % of control
Cc1c2ccccc2c(CN(C)CC(=O)O)c2ccccc12 :: 102 % of control
CC12C=C(C(=O)c3ccccc3)C(CC1)C2(C)C (stereo unspecified) :: 93 % of control
COC(=O)C1C2OC(C(Br)C2Br)C1C(=O)OC (stereo unspecified) :: 93 % of control
O=[N+]([O-])c1cccc(/C=C/C=C/c2ccc(Cl)c(S(=O)(=O)F)c2)c1 :: 88 % of control
Cn1c(=O)cc(C(=O)NCCCN2CCOCC2)c2ccccc21 :: 96 % of control
CCCCOC(=O)C(C)(C)O :: 102 % of control
CN(C)C(=O)Nc1cccc(OS(=O)(=O)N(C)C)c1 :: 96 % of control
CCCCCCCCCCCCCCCCSSCCCCCCCCCCCCCCCC :: 88 % of control
COc1ccc(OC)c(C2N(Cc3ccc(N(C)C)cc3)CCCN2Cc2ccc(N(C)C)cc2)c1 :: 87 % of control
OCc1c(Cl)cccc1Cl :: 113 % of control
CCCC(C)(COC(N)=O)COC(N)=O :: 98 % of control
O=[N+]([O-])/C=C\c1ccc2c(c1)OCO2 :: 93 % of control
COC1=CCC2=C(C1)C1(C)CCCC(C)(CO)C1CC2 (stereo unspecified) :: 92 % of control
C/C(=N\Nc1ccc([N+](=O)[O-])cc1[N+](=O)[O-])c1ccc[nH]1 :: 95 % of control
Cc1cc(Cc2ccc(N=C=O)c(C)c2)ccc1N=C=O :: 111 % of control
O=c1[nH]cc(NCCCc2ccccc2)c(=O)[nH]1 :: 104 % of control
COc1ccccc1NC(C)=O :: 96 % of control
Cc1ccc(NC(=O)Nc2ccccc2Cl)c(C)c1 :: 90 % of control
